Test: Serum stability study monitored by HPLC
Format: in vitro ADME, human
Settings: human, human serum diluted in PBS, 3 h; replicate 1; human serum 50 uL in PBS 500 uL, 37 °C, HPLC 220 nm, caffeine internal standard; read-out: Normalised Linker % (peptide remaining)
Description: The stability of SP1 in human serum was investigated and compared to the stability of its linear precursor P1 and the parent PMI (Fig. 6). The stability of the peptides at 37 °C in human serum was monitored throughout 5 days by HPLC. Fig. 6 Stability of the precursor peptide P1, the parent PMI and SP1 in human serum at 37 °C, over 5 days, monitored by HPLC at 220 nm. […] 6.2 Serum Stability Studies […] Caffeine was used as an internal standard to enable quantification of degradation over time. […]
TEST_READOUT: remaining at 3 h, 175 µM (%)
// note: answer is a bare numeric in %

Consider the substance Ac-TSFAEYWNNLSP-NH2 [PMI, reference compound] and give its recorded remaining at 3 h, 175 µM.
72.8

---

Experiment: Serum stability study monitored by HPLC
Type: in vitro ADME, human
Settings: human, human serum diluted in PBS, 9 h; replicate 2; human serum 50 uL in PBS 500 uL, 37 °C, HPLC 220 nm, caffeine internal standard; read-out: Normalised Linker % (peptide remaining)
TEST_READOUT: remaining at 9 h, 175 µM
Show the value, then the unit it is measured in.

Consider the substance Ac-TSFAEYWNNLSP-NH2 [PMI, reference compound] and give its recorded remaining at 9 h, 175 µM.
11.3%

---

Experiment: Serum stability study monitored by HPLC
Assay type: in vitro ADME, human
Settings: human, human serum diluted in PBS, 24 h; replicate 2; human serum 50 uL in PBS 500 uL, 37 °C, HPLC 220 nm, caffeine internal standard; read-out: Normalised Linker % (peptide remaining)
Starred links: 1 amine or outer side, 2 acyl side, 3 side chain; linkers in the order of their positions; H or OH if unused. Positions of bridges follow the written chain, without caps; N, C: chain ends. Residues, ends and D or L forms follow the SMILES beside them. X1 = Clc1cc([*:1])cc(Cl)c1N=Nc1c(Cl)cc([*:2])cc1Cl
TEST_READOUT: remaining at 24 h, 175 µM
Show the value, then the unit it is measured in.

Consider the molecule CC(=O)N[C@H](C(=O)N[C@@H](CO)C(=O)N[C@@H](Cc1ccccc1)C(=O)N[C@@H](C)C(=O)N[C@H]1CSc2cc(Cl)c(c(Cl)c2)N=Nc2c(Cl)cc(cc2Cl)SC[C@@H](C(N)=O)NC(=O)[C@H](CO)NC(=O)[C@H](CC(C)C)NC(=O)CNC(=O)[C@H](CC(N)=O)NC(=O)[C@H](Cc2c[nH]c3ccccc23)NC(=O)[C@H](Cc2ccc(O)cc2)NC1=O)[C@@H](C)O [SP1] (Ac-TSFACYWNGLSC-NH2; linker 5-12 via X1) and give its recorded remaining at 24 h, 175 µM.
72.4%

---

Experiment: Serum stability study monitored by HPLC
Format: in vitro ADME, human
Conditions: human, human serum diluted in PBS, 24 h; replicate 1; human serum 50 uL in PBS 500 uL, 37 °C, HPLC 220 nm, caffeine internal standard; read-out: Normalised Linker % (peptide remaining)
Starred links: 1 amine or outer side, 2 acyl side, 3 side chain; linkers in the order of their positions; H or OH if unused. Positions of bridges follow the written chain, without caps; N, C: chain ends. Residues, ends and D or L forms follow the SMILES beside them. X1 = Clc1cc([*:1])cc(Cl)c1N=Nc1c(Cl)cc([*:2])cc1Cl
TEST_READOUT: remaining at 24 h, 175 µM

Consider the compound CC(=O)N[C@H](C(=O)N[C@@H](CO)C(=O)N[C@@H](Cc1ccccc1)C(=O)N[C@@H](C)C(=O)N[C@H]1CSc2cc(Cl)c(c(Cl)c2)N=Nc2c(Cl)cc(cc2Cl)SC[C@@H](C(N)=O)NC(=O)[C@H](CO)NC(=O)[C@H](CC(C)C)NC(=O)CNC(=O)[C@H](CC(N)=O)NC(=O)[C@H](Cc2c[nH]c3ccccc23)NC(=O)[C@H](Cc2ccc(O)cc2)NC1=O)[C@@H](C)O [SP1] (Ac-TSFACYWNGLSC-NH2; linker 5-12 via X1) and give its recorded remaining at 24 h, 175 µM.
82.9%
